target: T1, human ROR1 on cells (full-length human ROR1 on huROR1-HEK293 cells; human ROR1 on A549 and HT-29 tumor cells) (human, UniProt Q01973 30-937); test: flow cytometry (FACS) on huROR1-HEK293 cells, anti-human IgG-Fc secondary antibody, MFI
T1 construct: whole, on cells; also called hROR1-HEK293T; A549 tumor cells
T1 sequence (Q01973 30-937): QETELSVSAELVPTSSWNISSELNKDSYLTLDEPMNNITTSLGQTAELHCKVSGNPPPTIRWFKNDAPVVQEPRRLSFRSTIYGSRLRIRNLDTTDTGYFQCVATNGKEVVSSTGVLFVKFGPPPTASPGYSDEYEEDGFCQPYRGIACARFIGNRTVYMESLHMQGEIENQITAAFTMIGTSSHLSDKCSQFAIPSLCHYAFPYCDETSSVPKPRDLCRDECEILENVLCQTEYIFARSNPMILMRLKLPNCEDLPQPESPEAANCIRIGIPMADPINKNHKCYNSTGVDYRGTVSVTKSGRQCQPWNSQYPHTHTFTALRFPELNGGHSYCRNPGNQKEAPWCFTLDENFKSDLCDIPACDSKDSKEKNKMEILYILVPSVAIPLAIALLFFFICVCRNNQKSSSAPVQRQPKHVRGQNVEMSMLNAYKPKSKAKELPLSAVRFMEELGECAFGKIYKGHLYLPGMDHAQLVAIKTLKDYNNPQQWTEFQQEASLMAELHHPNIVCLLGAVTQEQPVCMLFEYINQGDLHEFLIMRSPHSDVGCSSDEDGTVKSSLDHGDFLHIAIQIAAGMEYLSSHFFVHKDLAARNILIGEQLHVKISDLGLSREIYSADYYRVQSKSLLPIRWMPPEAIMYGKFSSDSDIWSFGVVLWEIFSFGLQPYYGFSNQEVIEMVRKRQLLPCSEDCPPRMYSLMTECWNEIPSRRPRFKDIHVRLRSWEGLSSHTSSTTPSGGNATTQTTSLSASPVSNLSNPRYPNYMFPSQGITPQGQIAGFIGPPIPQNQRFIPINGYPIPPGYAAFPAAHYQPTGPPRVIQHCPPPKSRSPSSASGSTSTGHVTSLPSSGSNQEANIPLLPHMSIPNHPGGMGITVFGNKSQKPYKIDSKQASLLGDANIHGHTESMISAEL
Each entry below carries its recorded EC50 (read off the curve).

Examples with their reported EC50 (read off the curve) follow.
B62 (chimeric antibody) (antibody, human IgG1, kappa, V domains shown, ExpiCHO expression) VH: DVKLVESGGGLVQPGGSLKLSCAASGFTFSSYVMSWVRQTPDKRLELVATINSNGGNTYYPDSVKGRFTISRDNAKNTLYLQMSSLKSEDTAMYYCARDSLGLRRRDYAMDYWGQGTSVTVSS VL: DIVLTQSPASLSMAIGEKVTIRCVTSIDIDDDVNWYQQKPGKPPKLLISAGNTLRPGVPSRFSSSGYGTDFVFTIENMLSEDVADYYCLQSDNLPYTFGGGTKLEIKR	~0.07 µg/mL
B34 (chimeric antibody) (antibody, human IgG1, kappa, V domains shown, ExpiCHO expression) VH: EVQLVESGGGLVQPKGSLKLSCAASGFTFSRYAMSWVRQTPEKRLEWVASISTGGSPYYPDSVKGRFTISRDNARNILYLQMSSLKSEDTAMYYCARGYYYNSSPHWYFAVWGAGTSVTVSS VL: DIQMTQSPSSLSASLGERVTITCKASQDINSYLSWFQQKPGKSPKTLIYRANRLVDGVPSRFSGSGSGQDYSLTISSLEYEDMGIYYCLQYDEFPYTFGGGTKLEIKR	~0.2 µg/mL

From here, focus on the item given below.
*Q* Item M78 (chimeric antibody) (antibody, human IgG1, kappa, V domains shown, ExpiCHO expression) VH: EVMLVESGGGLVRPGGSLKLSCAASGFTFSSYAMSWVRQSPEKRLEWVASINRGGTTYYPDSVKGRFTISRDNARDILYLQMSSLRSEDTAIYYCARDYYYGSNLYNGMDYWGQGTSVIVSS VL: DIKITQSPSSMYASLGERVTITCKASQDINSYLSWFQQKPGKSPKTLIYRANRLVDGVPSRFSGSGSGQDYSLTISSLEYEDMGIYYCLQFDEFPYTFGGGTKLEIKR : provide EC50 (read off the curve)
*A* ~0.1 µg/mL
